Tested on: L1210 leukemia ip in BDF1 mice, survival T/C
assayOverview: NCI In Vivo Anticancer Drug Screen. Data for tumor model L1210 Leukemia (intraperitoneal) in B6D2F1 (BDF1) mice
conditionSummary: endpoint: mean survival time; dose: 400.0 mg/kg/injection; schedule: Q04DX003 (ip); vehicle: other; higher = longer survival
Inconclusive results and toxic doses are left out.
T/C values for the compounds below.
recordedEndpoint: T/C

> print(dat)
                                   compound  recordedendpoint            result
1     O=C(O)CCC(=O)NNC(=O)Cc1c[nH]c2ccccc12               T/C   94 % of control
2  CC(=O)CCCCCCCCCCC1CCC2OC12 (centres undefined)               T/C  102 % of control
3            CC1(C)c2ccccc2C(C)(O)c2ccccc21               T/C  107 % of control
4                              C=CSCCCCCCCC               T/C   97 % of control
